Experimental system: ZNF721 DBD1 (Homo sapiens, UniProt Q8TF20-2 29-461)
Sequence (Q8TF20 17-449): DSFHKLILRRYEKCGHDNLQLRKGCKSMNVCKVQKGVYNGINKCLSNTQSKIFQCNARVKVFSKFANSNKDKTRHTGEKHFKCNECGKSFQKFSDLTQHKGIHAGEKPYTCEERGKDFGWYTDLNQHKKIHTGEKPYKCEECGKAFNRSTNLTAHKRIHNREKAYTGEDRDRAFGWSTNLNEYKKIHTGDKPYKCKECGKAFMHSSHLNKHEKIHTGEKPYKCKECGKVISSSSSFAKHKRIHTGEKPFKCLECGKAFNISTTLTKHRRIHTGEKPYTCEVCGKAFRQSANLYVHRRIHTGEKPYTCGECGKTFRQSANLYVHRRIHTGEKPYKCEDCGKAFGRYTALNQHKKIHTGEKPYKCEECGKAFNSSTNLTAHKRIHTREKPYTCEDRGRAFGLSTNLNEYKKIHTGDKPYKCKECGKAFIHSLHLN
Assay notes: HT-SELEX; 20 mM HEPES pH 7, 140 mM KCl, 5 mM NaCl, 1 mM K2HPO4, 2 mM MgSO4, 100 uM EGTA, ZnSO4, 0.1% Tween20; room temperature, 1 h; high values mean tight binding
Condition summary: protein: ivt; tags: eGFP (N-terminal); dsDNA, one strand shown

Monomer sequence: CACCCCACCA
Experimental system: ZNF721 DBD1 (Homo sapiens, UniProt Q8TF20-2 29-461)
binding signal / relative 10-mer count: 0.00725
--
Monomer sequence: AAAAAAGGCA
Experimental system: ZNF721 DBD1 (Homo sapiens, UniProt Q8TF20-2 29-461)
binding signal / relative 10-mer count: 0.00284
--
Monomer sequence: GCACCACCCC
Experimental system: ZNF721 DBD1 (Homo sapiens, UniProt Q8TF20-2 29-461)
binding signal / relative 10-mer count: 0.00358
--
Monomer sequence: GTGGGTGGGA
Experimental system: ZNF721 DBD1 (Homo sapiens, UniProt Q8TF20-2 29-461)
binding signal / relative 10-mer count: 0.00729
--
Monomer sequence: ACTTCATACC
Experimental system: ZNF721 DBD1 (Homo sapiens, UniProt Q8TF20-2 29-461)
binding signal / relative 10-mer count: 0.502
--
Monomer sequence: CCTCCACCCA
Experimental system: ZNF721 DBD1 (Homo sapiens, UniProt Q8TF20-2 29-461)
binding signal / relative 10-mer count: 0.00505
--
Monomer sequence: ACCGCCACCC
Experimental system: ZNF721 DBD1 (Homo sapiens, UniProt Q8TF20-2 29-461)
binding signal / relative 10-mer count: 0.00335
--
Monomer sequence: CACCCCCACC
Experimental system: ZNF721 DBD1 (Homo sapiens, UniProt Q8TF20-2 29-461)
binding signal / relative 10-mer count: 0.0129
--
Monomer sequence: CCAACCCCCA
Experimental system: ZNF721 DBD1 (Homo sapiens, UniProt Q8TF20-2 29-461)
binding signal / relative 10-mer count: 0.00486
--
Monomer sequence: CCCCCTCGCC
Experimental system: ZNF721 DBD1 (Homo sapiens, UniProt Q8TF20-2 29-461)
binding signal / relative 10-mer count: 0.0061
--
Monomer sequence: ACCTCCCCAC
Experimental system: ZNF721 DBD1 (Homo sapiens, UniProt Q8TF20-2 29-461)
binding signal / relative 10-mer count: 0.00422
--
Monomer sequence: CCCCCCAACC
Experimental system: ZNF721 DBD1 (Homo sapiens, UniProt Q8TF20-2 29-461)
binding signal / relative 10-mer count: 0.00651
--
Monomer sequence: CCGCCCCACC
Experimental system: ZNF721 DBD1 (Homo sapiens, UniProt Q8TF20-2 29-461)
binding signal / relative 10-mer count: 0.00894
--
Monomer sequence: CCCATCCCCC
Experimental system: ZNF721 DBD1 (Homo sapiens, UniProt Q8TF20-2 29-461)
binding signal / relative 10-mer count: 0.00716
--
Monomer sequence: CCGCCCGCCC
Experimental system: ZNF721 DBD1 (Homo sapiens, UniProt Q8TF20-2 29-461)
binding signal / relative 10-mer count: 0.00495
--
Monomer sequence: CCAACCCCCC
Experimental system: ZNF721 DBD1 (Homo sapiens, UniProt Q8TF20-2 29-461)
binding signal / relative 10-mer count: 0.0056
--
Monomer sequence: CCCCCCCAAC
Experimental system: ZNF721 DBD1 (Homo sapiens, UniProt Q8TF20-2 29-461)
binding signal / relative 10-mer count: 0.0044
--
Monomer sequence: CCACCCCGCC
Experimental system: ZNF721 DBD1 (Homo sapiens, UniProt Q8TF20-2 29-461)
binding signal / relative 10-mer count: 0.00894
--
Monomer sequence: AGCGTCTCCA
Experimental system: ZNF721 DBD1 (Homo sapiens, UniProt Q8TF20-2 29-461)
binding signal / relative 10-mer count: 0.0472
--
Monomer sequence: CCCCTCCTCC
Experimental system: ZNF721 DBD1 (Homo sapiens, UniProt Q8TF20-2 29-461)
binding signal / relative 10-mer count: 0.00794
--
Monomer sequence: CCCCGGCCCC
Experimental system: ZNF721 DBD1 (Homo sapiens, UniProt Q8TF20-2 29-461)
binding signal / relative 10-mer count: 0.00358
--
Monomer sequence: CCACACCCAC
Experimental system: ZNF721 DBD1 (Homo sapiens, UniProt Q8TF20-2 29-461)
binding signal / relative 10-mer count: 0.00605
--
Monomer sequence: CCCACCCCCA
Experimental system: ZNF721 DBD1 (Homo sapiens, UniProt Q8TF20-2 29-461)
binding signal / relative 10-mer count: 0.0118
--
Monomer sequence: CCCCCCCACG
Experimental system: ZNF721 DBD1 (Homo sapiens, UniProt Q8TF20-2 29-461)
binding signal / relative 10-mer count: 0.00399
--
Monomer sequence: CCTCCGCCCC
Experimental system: ZNF721 DBD1 (Homo sapiens, UniProt Q8TF20-2 29-461)
binding signal / relative 10-mer count: 0.00789
--
Monomer sequence: CCACCCAGCC
Experimental system: ZNF721 DBD1 (Homo sapiens, UniProt Q8TF20-2 29-461)
binding signal / relative 10-mer count: 0.00294
--
Monomer sequence: AAGGCATACC
Experimental system: ZNF721 DBD1 (Homo sapiens, UniProt Q8TF20-2 29-461)
binding signal / relative 10-mer count: 0.00183
--
Monomer sequence: CACCCTCCCA
Experimental system: ZNF721 DBD1 (Homo sapiens, UniProt Q8TF20-2 29-461)
binding signal / relative 10-mer count: 0.00555
--
Monomer sequence: CCCGCCCTCC
Experimental system: ZNF721 DBD1 (Homo sapiens, UniProt Q8TF20-2 29-461)
binding signal / relative 10-mer count: 0.00803
--
Monomer sequence: GCCCCACCAC
Experimental system: ZNF721 DBD1 (Homo sapiens, UniProt Q8TF20-2 29-461)
binding signal / relative 10-mer count: 0.00555
--
Monomer sequence: CCCCCTCCCA
Experimental system: ZNF721 DBD1 (Homo sapiens, UniProt Q8TF20-2 29-461)
binding signal / relative 10-mer count: 0.00784
--
Monomer sequence: ACCCCCCCCC
Experimental system: ZNF721 DBD1 (Homo sapiens, UniProt Q8TF20-2 29-461)
binding signal / relative 10-mer count: 0.00362
--
Monomer sequence: AGGTGGTGGG
Experimental system: ZNF721 DBD1 (Homo sapiens, UniProt Q8TF20-2 29-461)
binding signal / relative 10-mer count: 0.00601
--
Monomer sequence: CTCCCGCCCC
Experimental system: ZNF721 DBD1 (Homo sapiens, UniProt Q8TF20-2 29-461)
binding signal / relative 10-mer count: 0.00596
--
Monomer sequence: CCCCCCCACC
Experimental system: ZNF721 DBD1 (Homo sapiens, UniProt Q8TF20-2 29-461)
binding signal / relative 10-mer count: 0.0144

---

Experimental system: ZNF721 DBD2 (Homo sapiens, UniProt Q8TF20-2 395-923)
Sequence (Q8TF20 383-911): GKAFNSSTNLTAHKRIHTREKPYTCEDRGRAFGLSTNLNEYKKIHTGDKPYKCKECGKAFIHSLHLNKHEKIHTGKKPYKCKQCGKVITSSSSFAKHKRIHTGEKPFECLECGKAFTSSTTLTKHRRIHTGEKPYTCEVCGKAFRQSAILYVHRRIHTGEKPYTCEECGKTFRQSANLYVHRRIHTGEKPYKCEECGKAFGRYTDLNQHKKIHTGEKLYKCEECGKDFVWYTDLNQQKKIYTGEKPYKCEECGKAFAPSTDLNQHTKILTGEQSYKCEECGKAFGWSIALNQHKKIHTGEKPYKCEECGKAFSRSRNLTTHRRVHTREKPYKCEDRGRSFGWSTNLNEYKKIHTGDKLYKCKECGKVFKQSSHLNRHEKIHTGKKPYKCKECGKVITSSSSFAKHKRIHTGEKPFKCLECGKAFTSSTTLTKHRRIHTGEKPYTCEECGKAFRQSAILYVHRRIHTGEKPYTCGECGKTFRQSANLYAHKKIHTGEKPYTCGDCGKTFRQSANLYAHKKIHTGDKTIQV
Assay notes: HT-SELEX; 20 mM HEPES pH 7, 140 mM KCl, 5 mM NaCl, 1 mM K2HPO4, 2 mM MgSO4, 100 uM EGTA, ZnSO4, 0.1% Tween20; room temperature, 1 h; high values mean tight binding
Condition summary: protein: ivt; tags: eGFP (N-terminal); dsDNA, one strand shown
Hi all, reminder that labels come from binding signal, split as I (below 0.003 relative 10-mer count), II (0.003 relative 10-mer count to below 0.04 relative 10-mer count), III (0.04 relative 10-mer count or more)

Monomer sequence: CCCGCCCCCC
Experimental system: ZNF721 DBD2 (Homo sapiens, UniProt Q8TF20-2 395-923)
Answer label: I
--
Monomer sequence: ACCACCCACC
Experimental system: ZNF721 DBD2 (Homo sapiens, UniProt Q8TF20-2 395-923)
Answer label: II
--
Monomer sequence: CCCCTCCCCA
Experimental system: ZNF721 DBD2 (Homo sapiens, UniProt Q8TF20-2 395-923)
Answer label: II
--
Monomer sequence: GCACCACCCC
Experimental system: ZNF721 DBD2 (Homo sapiens, UniProt Q8TF20-2 395-923)
Answer label: II
--
Monomer sequence: ACCCCCCCCA
Experimental system: ZNF721 DBD2 (Homo sapiens, UniProt Q8TF20-2 395-923)
Answer label: I
--
Monomer sequence: CAGAAAAAAG
Experimental system: ZNF721 DBD2 (Homo sapiens, UniProt Q8TF20-2 395-923)
Answer label: III
--
Monomer sequence: AGAAAAAAGC
Experimental system: ZNF721 DBD2 (Homo sapiens, UniProt Q8TF20-2 395-923)
Answer label: III
--
Monomer sequence: AACAGCATAT
Experimental system: ZNF721 DBD2 (Homo sapiens, UniProt Q8TF20-2 395-923)
Answer label: III
--
Monomer sequence: CCGCGCCCCC
Experimental system: ZNF721 DBD2 (Homo sapiens, UniProt Q8TF20-2 395-923)
Answer label: I
--
Monomer sequence: AGGGTTTCCA
Experimental system: ZNF721 DBD2 (Homo sapiens, UniProt Q8TF20-2 395-923)
Answer label: III
--
Monomer sequence: CGCCCCGCCC
Experimental system: ZNF721 DBD2 (Homo sapiens, UniProt Q8TF20-2 395-923)
Answer label: I
--
Monomer sequence: GCAACACTGC
Experimental system: ZNF721 DBD2 (Homo sapiens, UniProt Q8TF20-2 395-923)
Answer label: III
--
Monomer sequence: CCGAAAAAAG
Experimental system: ZNF721 DBD2 (Homo sapiens, UniProt Q8TF20-2 395-923)
Answer label: III
--
Monomer sequence: CGCCCCACCA
Experimental system: ZNF721 DBD2 (Homo sapiens, UniProt Q8TF20-2 395-923)
Answer label: II
--
Monomer sequence: ACAAAAAAAC
Experimental system: ZNF721 DBD2 (Homo sapiens, UniProt Q8TF20-2 395-923)
Answer label: III
--
Monomer sequence: AACCACCCCC
Experimental system: ZNF721 DBD2 (Homo sapiens, UniProt Q8TF20-2 395-923)
Answer label: I
--
Monomer sequence: CCCCACCCTC
Experimental system: ZNF721 DBD2 (Homo sapiens, UniProt Q8TF20-2 395-923)
Answer label: II
--
Monomer sequence: AAACAGCAGT
Experimental system: ZNF721 DBD2 (Homo sapiens, UniProt Q8TF20-2 395-923)
Answer label: III
--
Monomer sequence: CATCCCACCC
Experimental system: ZNF721 DBD2 (Homo sapiens, UniProt Q8TF20-2 395-923)
Answer label: II
--
Monomer sequence: CTCCCACCCC
Experimental system: ZNF721 DBD2 (Homo sapiens, UniProt Q8TF20-2 395-923)
Answer label: II
--
Monomer sequence: CCGCCCCCCC
Experimental system: ZNF721 DBD2 (Homo sapiens, UniProt Q8TF20-2 395-923)
Answer label: I
--
Monomer sequence: CCCCCCCGCC
Experimental system: ZNF721 DBD2 (Homo sapiens, UniProt Q8TF20-2 395-923)
Answer label: I
--
Monomer sequence: CATCCCCACC
Experimental system: ZNF721 DBD2 (Homo sapiens, UniProt Q8TF20-2 395-923)
Answer label: II
--
Monomer sequence: TAAAAAAAAA
Experimental system: ZNF721 DBD2 (Homo sapiens, UniProt Q8TF20-2 395-923)
Answer label: III
--
Monomer sequence: CCACCACCGC
Experimental system: ZNF721 DBD2 (Homo sapiens, UniProt Q8TF20-2 395-923)
Answer label: II
--
Monomer sequence: AAAAACAGAG
Experimental system: ZNF721 DBD2 (Homo sapiens, UniProt Q8TF20-2 395-923)
Answer label: III
--
Monomer sequence: CGCCCCCCGC
Experimental system: ZNF721 DBD2 (Homo sapiens, UniProt Q8TF20-2 395-923)
Answer label: II
--
Monomer sequence: ACCCACACCC
Experimental system: ZNF721 DBD2 (Homo sapiens, UniProt Q8TF20-2 395-923)
Answer label: II
--
Monomer sequence: CCCGCCCACC
Experimental system: ZNF721 DBD2 (Homo sapiens, UniProt Q8TF20-2 395-923)
Answer label: I
--
Monomer sequence: ACGAAAAAAG
Experimental system: ZNF721 DBD2 (Homo sapiens, UniProt Q8TF20-2 395-923)
Answer label: III
--
Monomer sequence: CTAAAAAAAA
Experimental system: ZNF721 DBD2 (Homo sapiens, UniProt Q8TF20-2 395-923)
Answer label: III
--
Monomer sequence: CACCCAACCC
Experimental system: ZNF721 DBD2 (Homo sapiens, UniProt Q8TF20-2 395-923)
Answer label: I
